Below, each entry is listed with its recorded protein stability index.
B1: NECAB1 (parent)
chain: FSPNSPQFNVSGPGLLEEDNQWMT

Variants of: B1
testMethodNotes: protein stability index of a GFP-peptide fusion (GPS, HEK-293T) (PSI 1-6); higher = more stable;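 also: lentivirally expressed fusions sorted by FACS into six bins by GFP to DsRed ratio, PSI derived from sequencing read proportions per bin multiplied by bin number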
testContext: c terminus: a fixed tail appended
Format: numeric value only, no unit, no commentary.

| sequenceCode | valueReported |
| --- | --- |
| FSPNSPQFNVSGPGLLEEDNQWCT | 2.67 |
| FSPNSPQFNVSGPGLLEEDNQLMT | 3.71 |
| FSPNSPQFNMSGPGLLEEDNQWMT | 3.33 |
| FSPNSPFFNVSGPGLLEEDNQWMT | 2.59 |
| FSPNSPQFNVSGPGALEEDNQWMT | 3.26 |
| FSPNSPQFNVSGPGLLEEDNQWLT | 2.76 |

# protein stability index (variant: FSPNSPQFNVSGPGLWEEDNQWMT ) is 2.25

Sample FSPNSPQFNVSGPGLLEEDNQWET ; protein stability index observed: 4.15

Consider FSPNSPQFGVSGPGLLEEDNQWMT . Its measured protein stability index is 3.23

Entry PSPNSPQFNVSGPGLLEEDNQWMT ; protein stability index = 4.51

protein stability index reported for this variant FSPNSPQFNVSGPILLEEDNQWMT : 2.29

Form field protein stability index, entry FSPNSPQFNVSGPGLLEEDNTWMT : 2.41

Summary for this variant, FSPNSPQFNVSGSGLLEEDNQWMT : protein stability index is 3.02

Looking up FSPNSPQFNVSGPGLLEELNQWMT , I see its protein stability index listed as 2.3
